Each recorded value in this set is attributed to patent US7166296B2.

# System: UEA-1 binding sites on Caco-2 cell membrane preparations
# PROCEDURE_TEXT: Two tier competition assay: compound incubated alone with membranes, biotinylated UEA-1 added in next step
# Set-up: species or system human
# ASSAY_CONDITIONS: Table 8, galloyl constructs
Non-standard residues stand in square brackets, D forms with d. Residues, ends and D or L forms follow the SMILES beside them. *: point of attachment. Galloyl = O=C(c1cc(O)c(O)c(O)c1)*; Dap = NC[C@H](N)C(=O)O
EXPERIMENTAL_ENDPOINT: IC 50 (ug/ml) 2nd tier (µg/mL)

# COMPOUND, EXPERIMENTAL_ENDPOINT, DISPLAY_UNIT, MEASUREMENT
data = [
    ("CC(=O)NC(CCCNC(=O)c1cc(O)c(O)c(O)c1)C(=O)NC(CCCNC(=O)c1cc(O)c(O)c(O)c1)C(=O)NC(CCCNC(=O)c1cc(O)c(O)c(O)c1)C(N)=O (stereo not drawn)", "IC 50 (ug/ml) 2nd tier", "µg/mL", 2),
    ("CC(=O)N[C@H](CCCCNC(=O)c1cc(O)c(O)c(O)c1)C(=O)N[C@H](CCCCNC(=O)c1cc(O)c(O)c(O)c1)C(=O)N[C@H](CCCCNC(=O)c1cc(O)c(O)c(O)c1)C(=O)N[C@H](CCCCNC(=O)c1cc(O)c(O)c(O)c1)C(=O)N[C@H](CCCCNC(=O)c1cc(O)c(O)c(O)c1)C(N)=O [MSI 30 #8] (Ac-[dK](Galloyl)[dK](Galloyl)[dK](Galloyl)[dK](Galloyl)[dK](Galloyl)-NH2)", "IC 50 (ug/ml) 2nd tier", "µg/mL", 15),
    ("CC(=O)N[C@@H](CNC(=O)c1cc(O)c(O)c(O)c1)C(=O)N[C@@H](CNC(=O)c1cc(O)c(O)c(O)c1)C(=O)N[C@@H](CNC(=O)c1cc(O)c(O)c(O)c1)C(=O)N[C@@H](CNC(=O)c1cc(O)c(O)c(O)c1)C(N)=O [MSI 34 #21] (Ac-[Dap](Galloyl)[Dap](Galloyl)[Dap](Galloyl)[Dap](Galloyl)-NH2)", "IC 50 (ug/ml) 2nd tier", "µg/mL", 1),
]

====

# Test system: UEA-1 binding sites on Caco-2 cell membrane preparations
# PROCEDURE_TEXT: Two tier competition assay: compound incubated alone with membranes, biotinylated UEA-1 added in next step
# Design: species or system human
# ASSAY_CONDITIONS: Table 8, galloyl constructs; read-out: IC 50 (uM) 2nd tier
EXPERIMENTAL_ENDPOINT: IC50 (µM)

# COMPOUND, TARGET_OR_TEST_SYSTEM, DISPLAY_UNIT, MEASUREMENT
measured = [
    ("NC(=O)C(CNC(=O)C(CNC(=O)c1cc(O)c(O)c(O)c1)NC(=O)c1cc(O)c(O)c(O)c1)NC(=O)CCCCCNC(=O)C(CNC(=O)c1cc(O)c(O)c(O)c1)NC(=O)c1cc(O)c(O)c(O)c1 (stereo not drawn)", "UEA-1 binding sites on Caco-2 cell membrane preparations", "µM", 0.7),
    ("NC(=O)C(CCNC(=O)c1cc(O)c(O)c(O)c1)NC(=O)C(CCNC(=O)c1cc(O)c(O)c(O)c1)NC(=O)c1cc(O)c(O)c(O)c1 (stereo not drawn)", "UEA-1 binding sites on Caco-2 cell membrane preparations", "µM", 1),
    ("NC(=O)C(CCCNC(=O)c1cc(O)c(O)c(O)c1)NC(=O)C(CCCNC(=O)c1cc(O)c(O)c(O)c1)NC(=O)c1cc(O)c(O)c(O)c1 (stereo not drawn)", "UEA-1 binding sites on Caco-2 cell membrane preparations", "µM", 1),
    ("CC(=O)NC(CNC(=O)c1cc(O)c(O)c(O)c1)C(=O)NC(CNC(=O)c1cc(O)c(O)c(O)c1)C(=O)NC(CNC(=O)c1cc(O)c(O)c(O)c1)C(N)=O (stereo not drawn)", "UEA-1 binding sites on Caco-2 cell membrane preparations", "µM", 2),
    ("NC(=O)C(CCCCNC(=O)c1cc(O)c(O)c(O)c1)NC(=O)c1cc(O)c(O)c(O)c1 (stereo not drawn)", "UEA-1 binding sites on Caco-2 cell membrane preparations", "µM", 17),
    ("NC(=O)C(CCCNC(=O)c1cc(O)c(O)c(O)c1)NC(=O)c1cc(O)c(O)c(O)c1 (stereo not drawn)", "UEA-1 binding sites on Caco-2 cell membrane preparations", "µM", 2),
]

====

# Tested on: UEA-1 binding sites on Caco-2 cell membrane preparations
# PROCEDURE_TEXT: Two tier competition assay: compound incubated alone with membranes, biotinylated UEA-1 added in next step
# Parameters: species or system human
# ASSAY_CONDITIONS: Table 8, galloyl constructs
# Protocol: The epithelial cell binding ability of compounds and mixtures obtained from synthetic combinatorial libraries was determined by competition assays. […] • 1. […] The protein concentration was determined using e.g. a Bio-Rad protein assay. • 9. […] The plates were flicked out, patted dry and biotinylated UEA-1 was detected with commercial Streptavidin conjugated to horseradish peroxidase (HRP) (CalBiochem). […]

# MOLECULE, DISPLAY_UNIT, IC 50 (ug/ml) 2nd tier
records = [
    ("CC(=O)NC(CCCCNC(=O)c1cc(O)c(O)c(O)c1)C(=O)NC(CCCCNC(=O)c1cc(O)c(O)c(O)c1)C(N)=O (centres unmarked)", "µg/mL", 48),
    ("NC(=O)C(CCCCNC(=O)c1cc(O)c(O)c(O)c1)NC(=O)C(CCCCNC(=O)c1cc(O)c(O)c(O)c1)NC(=O)c1cc(O)c(O)c(O)c1 (centres unmarked)", "µg/mL", 5),
    ("CC(=O)NC(Cc1ccc(NC(=O)c2cc(O)c(O)c(O)c2)cc1)C(=O)NC(Cc1ccc(NC(=O)c2cc(O)c(O)c(O)c2)cc1)C(=O)NC(Cc1ccc(NC(=O)c2cc(O)c(O)c(O)c2)cc1)C(N)=O (centres unmarked)", "µg/mL", 6),
    ("NC(=O)C(CCCNC(=O)C(CCCNC(=O)c1cc(O)c(O)c(O)c1)NC(=O)c1cc(O)c(O)c(O)c1)NC(=O)C(CCCNC(=O)c1cc(O)c(O)c(O)c1)NC(=O)c1cc(O)c(O)c(O)c1 (centres unmarked)", "µg/mL", 1),
    ("NC(=O)C(CCCCNC(=O)c1cc(O)c(O)c(O)c1)NC(=O)C(CCCCNC(=O)c1cc(O)c(O)c(O)c1)NC(=O)C(CCCCNC(=O)c1cc(O)c(O)c(O)c1)NC(=O)c1cc(O)c(O)c(O)c1 (centres unmarked)", "µg/mL", 0.6),
]

====

# Tested on: UEA-1 binding sites on Caco-2 cell membrane preparations
# PROCEDURE_TEXT: Two tier competition assay: compound incubated alone with membranes, biotinylated UEA-1 added in next step
# Parameters: species or system human
# ASSAY_CONDITIONS: Table 8, galloyl constructs
Non-standard residues stand in square brackets, D forms with d. Residues, ends and D or L forms follow the SMILES beside them. *: point of attachment. Galloyl = O=C(c1cc(O)c(O)c(O)c1)*

# COMPOUND, IC 50 (ug/ml) 2nd tier
measured = [
    ("NC(=O)C(CCNC(=O)c1cc(O)c(O)c(O)c1)NC(=O)C(CCNC(=O)c1cc(O)c(O)c(O)c1)NC(=O)C(CCNC(=O)c1cc(O)c(O)c(O)c1)NC(=O)c1cc(O)c(O)c(O)c1 (stereo not shown)", "0.9 µg/mL"),
    ("NC(=O)[C@@H](CCCCNC(=O)c1cc(O)c(O)c(O)c1)NC(=O)[C@@H](CCCCNC(=O)c1cc(O)c(O)c(O)c1)NC(=O)[C@@H](CCCCNC(=O)c1cc(O)c(O)c(O)c1)NC(=O)[C@@H](CCCCNC(=O)c1cc(O)c(O)c(O)c1)NC(=O)[C@@H](CCCCNC(=O)c1cc(O)c(O)c(O)c1)NC(=O)c1cc(O)c(O)c(O)c1 [MSI 30 #10] (Galloyl-[dK](Galloyl)[dK](Galloyl)[dK](Galloyl)[dK](Galloyl)[dK](Galloyl)-NH2)", "5 µg/mL"),
    ("NC(=O)C(CNC(=O)C(CNC(=O)c1cc(O)c(O)c(O)c1)NC(=O)c1cc(O)c(O)c(O)c1)NC(=O)C(CNC(=O)c1cc(O)c(O)c(O)c1)NC(=O)c1cc(O)c(O)c(O)c1 (stereo not shown)", "1 µg/mL"),
    ("CC(=O)N[C@H](CCCCNC(=O)c1cc(O)c(O)c(O)c1)C(=O)N[C@H](CCCCNC(=O)c1cc(O)c(O)c(O)c1)C(=O)N[C@H](CCCCNC(=O)c1cc(O)c(O)c(O)c1)C(=O)N[C@H](CCCCNC(=O)c1cc(O)c(O)c(O)c1)C(=O)N[C@H](CCCCNC(=O)c1cc(O)c(O)c(O)c1)C(=O)N[C@H](CCCCNC(=O)c1cc(O)c(O)c(O)c1)C(N)=O", "2 µg/mL"),
]
